Hey, just so you know, these numbers are from patent US11013780B2.

testDetails: Pharmacokinetics in monkeys after SC and IV administration
conditionInfo: monkey, in vivo, iv, 1 mg/kg
Where a SMILES comes first, the peptide text is derived from it. [ ]: non-standard residue; d: D form. Arg(Me) = CNC(=N)NCCC[C@H](N)C(=O)O; Hyp = O=C(O)[C@@H]1C[C@@H](O)CN1; azaGly = NNC(=O)O
outcomeMeasure: Cmax at 5 min (ng/mL)

- CNC(=N)NCCC[C@H](NC(=O)[C@H](CC(C)C)NC(=O)NNC(=O)[C@H](Cc1ccccc1)NC(=O)[C@@H](NC(=O)[C@H](CC(N)=O)NC(=O)[C@@H]1C[C@@H](O)CN1C(=O)[C@@H](Cc1ccc(O)cc1)NC(C)=O)[C@@H](C)O)C(=O)N[C@@H](Cc1c[nH]c2ccccc12)C(N)=O [Compound 1] (Ac-[dY][Hyp]NTF[azaGly]L[Arg(Me)]W-NH2): 5030

---

testDetails: Pharmacokinetics in dogs after SC and IV administration
conditionInfo: dog, in vivo, sc, 0.1 mg/kg
Where a SMILES comes first, the peptide text is derived from it. [ ]: non-standard residue; d: D form. Arg(Me) = CNC(=N)NCCC[C@H](N)C(=O)O; Hyp = O=C(O)[C@@H]1C[C@@H](O)CN1; azaGly = NNC(=O)O
outcomeMeasure: Tmax

- CNC(=N)NCCC[C@H](NC(=O)[C@H](CC(C)C)NC(=O)NNC(=O)[C@H](Cc1ccccc1)NC(=O)[C@@H](NC(=O)[C@H](CC(N)=O)NC(=O)[C@@H]1C[C@@H](O)CN1C(=O)[C@@H](Cc1ccc(O)cc1)NC(C)=O)[C@@H](C)O)C(=O)N[C@@H](Cc1c[nH]c2ccccc12)C(N)=O [Compound 1] (Ac-[dY][Hyp]NTF[azaGly]L[Arg(Me)]W-NH2): 48 min

---

testDetails: Single dose PK, phase 1, healthy European men
Assay type: in vivo, human
conditionInfo: male, human, plasma, single SC 0.01 mg, geometric mean
Where a SMILES comes first, the peptide text is derived from it. [ ]: non-standard residue; d: D form. Arg(Me) = CNC(=N)NCCC[C@H](N)C(=O)O; Hyp = O=C(O)[C@@H]1C[C@@H](O)CN1; azaGly = NNC(=O)O
outcomeMeasure: CL/F

• CC(=O)O.CNC(=N)NCCC[C@H](NC(=O)[C@H](CC(C)C)NC(=O)NNC(=O)[C@H](Cc1ccccc1)NC(=O)[C@@H](NC(=O)[C@H](CC(N)=O)NC(=O)[C@@H]1C[C@@H](O)CN1C(=O)[C@@H](Cc1ccc(O)cc1)NC(C)=O)[C@@H](C)O)C(=O)N[C@@H](Cc1c[nH]c2ccccc12)C(N)=O [API-MA] (Ac-[dY][Hyp]NTF[azaGly]L[Arg(Me)]W-NH2) = 449 mL/min

---

testDetails: Single dose PK, phase 1, healthy European men
Format: in vivo, human
conditionInfo: male, human, urine and plasma, single SC 0.3 mg, geometric mean, read-out: CLr (renal clearance) (converted)
Where a SMILES comes first, the peptide text is derived from it. [ ]: non-standard residue; d: D form. Arg(Me) = CNC(=N)NCCC[C@H](N)C(=O)O; Hyp = O=C(O)[C@@H]1C[C@@H](O)CN1; azaGly = NNC(=O)O
outcomeMeasure: CL renal (mL/min)

- CC(=O)O.CNC(=N)NCCC[C@H](NC(=O)[C@H](CC(C)C)NC(=O)NNC(=O)[C@H](Cc1ccccc1)NC(=O)[C@@H](NC(=O)[C@H](CC(N)=O)NC(=O)[C@@H]1C[C@@H](O)CN1C(=O)[C@@H](Cc1ccc(O)cc1)NC(C)=O)[C@@H](C)O)C(=O)N[C@@H](Cc1c[nH]c2ccccc12)C(N)=O [API-MA] (Ac-[dY][Hyp]NTF[azaGly]L[Arg(Me)]W-NH2): 14300

---

testDetails: Single dose PK, phase 1, healthy Japanese men
Format: in vivo, human
conditionInfo: male, human, plasma, sc, 0.001 mg, single SC bolus 0.001 mg, mean
Where a SMILES comes first, the peptide text is derived from it. [ ]: non-standard residue; d: D form. Arg(Me) = CNC(=N)NCCC[C@H](N)C(=O)O; Hyp = O=C(O)[C@@H]1C[C@@H](O)CN1; azaGly = NNC(=O)O
outcomeMeasure: CL/F

- CC(=O)O.CNC(=N)NCCC[C@H](NC(=O)[C@H](CC(C)C)NC(=O)NNC(=O)[C@H](Cc1ccccc1)NC(=O)[C@@H](NC(=O)[C@H](CC(N)=O)NC(=O)[C@@H]1C[C@@H](O)CN1C(=O)[C@@H](Cc1ccc(O)cc1)NC(C)=O)[C@@H](C)O)C(=O)N[C@@H](Cc1c[nH]c2ccccc12)C(N)=O [API-MA] (Ac-[dY][Hyp]NTF[azaGly]L[Arg(Me)]W-NH2): 310 mL/min

---

testDetails: Single dose PK, phase 1, healthy Japanese men
Format: in vivo, human
conditionInfo: male, human, plasma, sc, 0.25 mg, single SC bolus 0.25 mg, read-out: Tmax, median (range)
Where a SMILES comes first, the peptide text is derived from it. [ ]: non-standard residue; d: D form. Arg(Me) = CNC(=N)NCCC[C@H](N)C(=O)O; Hyp = O=C(O)[C@@H]1C[C@@H](O)CN1; azaGly = NNC(=O)O
outcomeMeasure: Tmax (min)

• CC(=O)O.CNC(=N)NCCC[C@H](NC(=O)[C@H](CC(C)C)NC(=O)NNC(=O)[C@H](Cc1ccccc1)NC(=O)[C@@H](NC(=O)[C@H](CC(N)=O)NC(=O)[C@@H]1C[C@@H](O)CN1C(=O)[C@@H](Cc1ccc(O)cc1)NC(C)=O)[C@@H](C)O)C(=O)N[C@@H](Cc1c[nH]c2ccccc12)C(N)=O [API-MA] (Ac-[dY][Hyp]NTF[azaGly]L[Arg(Me)]W-NH2) = 45

---

testDetails: Multiple-dose PK, SC bolus then continuous 13-day SC infusion, healthy European men
conditionInfo: male, human, plasma, sc, 0.3 mg/day
Where a SMILES comes first, the peptide text is derived from it. [ ]: non-standard residue; d: D form. Arg(Me) = CNC(=N)NCCC[C@H](N)C(=O)O; Hyp = O=C(O)[C@@H]1C[C@@H](O)CN1; azaGly = NNC(=O)O
outcomeMeasure: CL/F (mL/min)

• CC(=O)O.CNC(=N)NCCC[C@H](NC(=O)[C@H](CC(C)C)NC(=O)NNC(=O)[C@H](Cc1ccccc1)NC(=O)[C@@H](NC(=O)[C@H](CC(N)=O)NC(=O)[C@@H]1C[C@@H](O)CN1C(=O)[C@@H](Cc1ccc(O)cc1)NC(C)=O)[C@@H](C)O)C(=O)N[C@@H](Cc1c[nH]c2ccccc12)C(N)=O [API-MA] (Ac-[dY][Hyp]NTF[azaGly]L[Arg(Me)]W-NH2) = 295

---

testDetails: Single dose PK, phase 1, healthy European men
Format: in vivo, human
conditionInfo: male, human, urine and plasma, subcutaneous, 2-hour INF 1 mg, geometric mean (% CV), read-out: CLr (renal clearance) (converted)
Where a SMILES comes first, the peptide text is derived from it. [ ]: non-standard residue; d: D form. Arg(Me) = CNC(=N)NCCC[C@H](N)C(=O)O; Hyp = O=C(O)[C@@H]1C[C@@H](O)CN1; azaGly = NNC(=O)O
outcomeMeasure: CL renal (mL/min)

* CC(=O)O.CNC(=N)NCCC[C@H](NC(=O)[C@H](CC(C)C)NC(=O)NNC(=O)[C@H](Cc1ccccc1)NC(=O)[C@@H](NC(=O)[C@H](CC(N)=O)NC(=O)[C@@H]1C[C@@H](O)CN1C(=O)[C@@H](Cc1ccc(O)cc1)NC(C)=O)[C@@H](C)O)C(=O)N[C@@H](Cc1c[nH]c2ccccc12)C(N)=O [API-MA] (Ac-[dY][Hyp]NTF[azaGly]L[Arg(Me)]W-NH2) | 11400

---

testDetails: Pharmacokinetics in monkeys after SC and IV administration
conditionInfo: monkey, in vivo; monkeys, multi-exponential decline after reaching Cmax; read-out: Mean terminal elimination T1/2 (converted)
Where a SMILES comes first, the peptide text is derived from it. [ ]: non-standard residue; d: D form. Arg(Me) = CNC(=N)NCCC[C@H](N)C(=O)O; Hyp = O=C(O)[C@@H]1C[C@@H](O)CN1; azaGly = NNC(=O)O
outcomeMeasure: half-life

• CC(=O)O.CNC(=N)NCCC[C@H](NC(=O)[C@H](CC(C)C)NC(=O)NNC(=O)[C@H](Cc1ccccc1)NC(=O)[C@@H](NC(=O)[C@H](CC(N)=O)NC(=O)[C@@H]1C[C@@H](O)CN1C(=O)[C@@H](Cc1ccc(O)cc1)NC(C)=O)[C@@H](C)O)C(=O)N[C@@H](Cc1c[nH]c2ccccc12)C(N)=O [API-MA] (Ac-[dY][Hyp]NTF[azaGly]L[Arg(Me)]W-NH2) = ~2.6 h
